FYI, the data here is from PubChem BioAssay (Tox21).

assayProtocol: qHTS assay to identify small molecule agonists of the peroxisome proliferator-activated receptor delta (PPARd) signaling pathway - cell viability counter screen (AID 743211); note: % is set by controls: 0 for no effect and ±100 for the full control effect; nearly all actives have a fitted effect of over 55% in size
setupConditions: PPARd-bla HEK293H viability, CellTiter-Glo luminescence, 17 h; series mostly up to 62.6 µM
Records with an inconclusive call do not appear. Active and inactive are the calls of the source. Calls come from the whole dose curve; as a rule, active = well fitted cell-killing curve with a large enough effect in the repeat runs; inconclusive = weak or mixed curves; inactive = no such curve, though single readings can be large or run the other way.
Permitted responses: 1 (active), -1 (inactive)

1) CC/C=C\CCCCCO: -1

Could you check what this test reported for `CC1=Nc2ccccc2C1(C)C` ?
-1

Fill in: this test's call for `CC(=O)CC(=O)Nc1ccc(S(=O)(=O)O)cc1` is ___
-1

Assay result, entry `CC1(C)CCC[C@]2(C)[C@H]3CC(=O)O[C@]3(C)CC[C@@H]12` — outcome?
-1

Please state the recorded outcome for this molecule: `Nc1nc2c(ncn2COCCO)c(=O)[nH]1`
-1

###

assayProtocol: qHTS assay to test for compound auto fluorescence at 460 nm (blue) in HEK293 cell free culture (AID 720681); note: % is set by controls: 0 for no effect and ±100 for the full control effect
setupConditions: cell-free medium, autofluorescence 405/460 nm (blue); series mostly up to 91.3 µM
The source made the active and inactive calls. Calls follow the shape of the dose curve; as a rule, active = well fitted curve in the direction sought with a large enough effect in the repeat runs; inconclusive = weak or mixed curves; inactive = flat fitted curve, though single readings scatter.
measuredEndpoint: fluorescence, % of fluorescent control

Solved entries (count: 5):
1) CCC(C)[O-].CCC(C)[O-].CCOC(=O)/C=C(/C)[O-].[Al+3]: inactive
2) OC12N=C(c3ccccc3)SC1Cc1cc(Cl)ccc12 (stereo unspecified): inactive
3) CC(C)CCOC(=O)/C=C/c1ccccc1: inactive
4) Nc1nc2c(ncn2COCCO)c(=O)[nH]1: 0.0219% [at 18.6 µM] (inactive)
5) CNC(=O)c1ccccc1Sc1ccc2c(/C=C/c3ccccn3)n[nH]c2c1: inactive

Now look at this entry.
Which fluorescence, % of fluorescent control reading was recorded for the compound `CCCCCCCCCCCCCC[N+](C)(C)Cc1ccccc1` ?
inactive

###

targetSystem: Nuclear receptor ROR-gamma (Homo sapiens) (UniProt P51449)
assayProtocol: qHTS assay to identify small molecule antagonists of the retinoid-related orphan receptor gamma (ROR-gamma) signaling pathway (AID 1159521;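 note: CHO cells with doxycycline inducible ROR-gamma driving an RORE luciferase reporter; top concentration of the series differs between compounds; % is set by controls: 0 for no effect and ±100 for the full control effect; nearly all actives have a fitted effect of over 50% in size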)
setupConditions: Tet-on RORgamma CHO cells, RORE-luciferase, 16 h; series mostly up to 92.4 µM
Inconclusive results are not listed. Active and inactive are the calls of the source. Calls follow the shape of the dose curve; as a rule, active = well fitted inhibition curve with a large enough effect in the repeat runs; inconclusive = weak or mixed curves, or effect the other way; inactive = no such curve, though single readings can be large or run the other way.
measuredEndpoint: outcome

1) CCCNCCC: inactive
2) Nc1ccc(C(=O)O)c(O)c1: inactive
3) CCCCCCC1CCCC(=O)O1 (stereo not drawn): inactive
4) CC[N+](CC)(CC)CCOC(=O)C(C1CCCC1)C1CCCC1: inactive
5) Nc1ccc(Oc2ccc(Cl)cc2)cc1: inactive
6) CCCCOC(=O)CC: inactive

I'd like to know its outcome. The compound in question is CCCCC(CC)CN1CN(CC(CC)CCCC)CC(C)(N)C1 (stereo not drawn)
inactive

Using the record for `O=c1c(O)c(-c2ccc(O)cc2O)oc2cc(O)cc(O)c12` , report its outcome.
inactive

Param item = Cc1c(F)c(N2CCNC(C)C2)cc2c1c(=O)c(C(=O)O)cn2C1CC1 (stereo not drawn) ; retrieve measured outcome.
inactive

Given the entry `O=C1C(c2[nH]c3ccc(S(=O)(=O)O)cc3c2O)=Nc2ccc(S(=O)(=O)O)cc21` , report its measured outcome.
inactive

For the compound `ClCCl` , what outcome is on record?
inactive

Returns the measured outcome for the input compound. Input: `Cc1ccc(C(C)C)cc2c(C)ccc1-2`
inactive

Dear colleague, I am looking for the recorded outcome of the following compound: `C=CC(=O)Nc1cc2c(Nc3ccc(F)c(Cl)c3)ncnc2cc1OCCCN1CCOCC1`
inactive

###

targetSystem: Estrogen receptor (Homo sapiens)
assayProtocol: qHTS assay to identify small molecule antagonists of the estrogen receptor alpha (ER-alpha) signaling pathway (AID 743069)
setupConditions: HEK293 ER-alpha-UAS-bla, beta-lactamase ratio, antagonist mode; series mostly up to 69.4 µM
Calls of active or inactive are those of the source. Calls come from the whole dose curve; as a rule, active = well fitted curve in the direction sought with a large enough effect in the signal ratio in the repeat runs (not every such curve was filed as active); inconclusive = weak or mixed curves, or effect the other way; inactive = no such curve, though single readings can be large or run the other way; the % refers to the signal ratio.
Valid outcomes are listed here; reply with one: y (active), n (inactive)

The following compounds have reported results that may help.
1) O=C(Nc1ccc2c(O)c(N=Nc3ccc(N=Nc4ccc(S(=O)(=O)O)cc4)cc3)c(S(=O)(=O)O)cc2c1)c1ccccc1: n
2) OCCN1CCN(CCCN2c3ccccc3Sc3ccc(C(F)(F)F)cc32)CC1: n

Answer briefly: the call reported for `Cc1ccc(N/N=c2\c(=O)cc/c(=N\Nc3ccc(S(=O)(=O)O)cc3)c2=O)c(C)c1` in this assay.
n

Kindly provide the recorded test outcome for the following compound: `CCCCC/C=C\C/C=C\CCCCCCCC(=O)O`
n

Assay outcome for `Cc1c(C)c2c(c(C)c1OC(=O)c1cccnc1)CC[C@@](C)(CCC[C@H](C)CCC[C@H](C)CCCC(C)C)O2` : what was it?
n

What did the test return for CCCCCCOC(=O)C(C)CC (stereo not drawn) ?
n

// return assay outcome for `c1ccc(SSc2ccccc2)cc1`
n

Outcome? `Cc1cccc(C(=O)O)c1O`
n

Which outcome did this test record for the compound CC(C)(c1cc(Br)c(OCC(Br)CBr)c(Br)c1)c1cc(Br)c(OCC(Br)CBr)c(Br)c1 (stereo not drawn) ?
n

Which outcome did this test record for the compound `CCC(=O)OC(=O)CC` ?
n

Test call, this compound: `COc1c(C)c2c(c(O)c1C/C=C(\C)CCC(=O)OCCN1CCOCC1)C(=O)OC2`
y

Could you please tell me the result logged for `CC(=O)OCC=C(C)C` in this assay?
n

###

targetSystem: Androgen receptor (Homo sapiens) (UniProt P10275)
Sequence (P10275 whole entry, looked up): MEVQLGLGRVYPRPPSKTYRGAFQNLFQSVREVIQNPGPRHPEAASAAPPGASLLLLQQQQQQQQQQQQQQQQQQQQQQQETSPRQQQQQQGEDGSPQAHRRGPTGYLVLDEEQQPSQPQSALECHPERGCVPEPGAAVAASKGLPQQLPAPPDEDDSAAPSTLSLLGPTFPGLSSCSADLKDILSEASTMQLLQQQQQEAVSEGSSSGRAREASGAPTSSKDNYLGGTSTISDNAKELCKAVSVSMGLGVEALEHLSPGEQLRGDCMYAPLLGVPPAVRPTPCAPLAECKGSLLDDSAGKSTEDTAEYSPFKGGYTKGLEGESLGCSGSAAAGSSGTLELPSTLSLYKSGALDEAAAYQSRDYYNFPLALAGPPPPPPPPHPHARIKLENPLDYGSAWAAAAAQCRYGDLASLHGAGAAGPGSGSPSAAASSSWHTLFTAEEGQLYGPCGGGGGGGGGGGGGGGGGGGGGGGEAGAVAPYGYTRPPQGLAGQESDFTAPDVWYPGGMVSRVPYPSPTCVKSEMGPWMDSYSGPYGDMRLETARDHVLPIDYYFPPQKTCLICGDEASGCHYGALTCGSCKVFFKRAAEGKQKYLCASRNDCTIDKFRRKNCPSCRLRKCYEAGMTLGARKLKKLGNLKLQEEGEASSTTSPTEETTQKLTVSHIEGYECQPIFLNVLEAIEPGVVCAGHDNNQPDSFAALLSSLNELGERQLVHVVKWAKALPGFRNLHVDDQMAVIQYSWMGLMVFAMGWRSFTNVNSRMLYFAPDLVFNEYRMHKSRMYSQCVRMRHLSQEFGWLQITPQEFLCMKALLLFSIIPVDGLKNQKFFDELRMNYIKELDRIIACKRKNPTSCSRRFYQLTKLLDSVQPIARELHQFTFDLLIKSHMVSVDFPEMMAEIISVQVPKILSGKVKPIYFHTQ
assayProtocol: qHTS assay to identify small molecule antagonists of the androgen receptor (AR) signaling pathway (AID 743035); note: potency is the fitted concentration of half-maximal effect
setupConditions: HEK293 AR-UAS-bla, R1881-stimulated, beta-lactamase FRET, 16 h; series mostly up to 58.5 µM
Records with an inconclusive call do not appear. The source made the active and inactive calls. Calls come from the whole dose curve; as a rule, active = well fitted inhibition curve with a large enough effect in the signal ratio in the repeat runs (not every such curve was filed as active); inconclusive = weak or mixed curves, or effect the other way; inactive = no such curve, though single readings can be large or run the other way; the % refers to the signal ratio.
measuredEndpoint: Potency

Previously resolved entries follow.
1. CCCCCCCCCCCCOC(=O)c1ccc(O)cc1: inactive
2. COC1=C(OC)C(=O)C(CCCCCCCCCCO)=C(C)C1=O: 16.9 µM (active)
3. CCN(CC)c1ccc2c(-c3ccc(S(=O)(=O)O)cc3S(=O)(=O)[O-])c3ccc(=[N+](CC)CC)cc-3oc2c1: inactive
4. OC[C@H]1O[C@H](O[C@H]2O[C@H](CO)[C@@H](O)[C@H](O)[C@H]2O)[C@H](O)[C@@H](O)[C@@H]1O: inactive

Now look at this entry.
Reported Potency for `FC(F)(F)c1cccc(Cl)c1` : what is it?
inactive

###

targetSystem: Cytochrome P450 2D6 (Homo sapiens)
assayProtocol: Cytochrome P450 Family 2 Subfamily D Member 6 (CYP2D6) small molecule antagonists: luciferase reporter qHTS assay (AID 1671196); note: nearly all actives have a fitted effect of over 50% in size
setupConditions: P450-Glo CYP2D6 enzyme assay, luciferin luminescence, 1 h; series mostly up to 115 µM
Inconclusive results are not listed. Activity calls are given as the source filed them. Calls follow the shape of the dose curve; as a rule, active = well fitted inhibition curve with a large enough effect in the repeat runs; inconclusive = weak or mixed curves; inactive = no such curve, though single readings can be large or run the other way.
Just give me one of these, please: active, inactive

# example entries with known answers
1. CCC(COC(=O)CCS)(COC(=O)CCS)COC(=O)CCS: inactive
2. Cc1cc(C(C)(C)C)cc(C)c1CC1=NCCN1: active
3. Fc1ccc(C(c2ccc(F)cc2)N2CCNCC2)cc1: active
4. CCCC[P+](C)(CCCC)CCCC: active
5. CCN(CC)c1ccc2c(-c3ccc(S(=O)(=O)O)cc3S(=O)(=O)[O-])c3ccc(=[N+](CC)CC)cc-3oc2c1: active
6. CCC(C)n1ncn(-c2ccc(N3CCN(c4ccc(OC[C@H]5CO[C@](Cn6cncn6)(c6ccc(Cl)cc6Cl)O5)cc4)CC3)cc2)c1=O (some centres not stated): inactive
7. CCCCCCOC(=O)C(C)CC (configuration not stated): inactive
8. ClCCl: inactive
9. CCOC(=O)c1ccc(C2CCC(NC[C@H](O)COc3ccc(O)c(NS(C)(=O)=O)c3)CC2)cc1 (some centres not stated): active
10. CCCCOC(=O)CO: inactive

What call does the record list for `C#Cc1ccc(-c2ccccc2F)cc1` ?
inactive

What did the test return for `O=[N+]([O-])c1cccc(C(F)(F)F)c1` ?
inactive

###

assayProtocol: qHTS assay for identifying genotoxic compounds that show differential cytotoxicity against isogenic chicken DT40 cell lines with known DNA damage response pathways - wild type cell line (AID 743012); note: nearly all actives have a fitted effect of over 60% in size
setupConditions: DT40 wild type chicken cells viability, CellTiter-Glo, 40 h; series mostly up to 68.4 µM
Results filed as inconclusive are left out. Active and inactive are the calls of the source. Calls follow the shape of the dose curve; as a rule, active = well fitted cell-killing curve with a large enough effect in the repeat runs; inconclusive = weak or mixed curves, or effect the other way; inactive = no such curve, though single readings can be large or run the other way.
Respond using exactly one of the listed classes: active, inactive

Example cases with answers are listed next.
1) CCN1C(=O)c2ccccc2C1Nc1ccc(OCCN2CCCCC2)cc1 (stereo not given): active
2) OC[C@H]1O[C@H](O[C@H]2O[C@H](CO)[C@@H](O)[C@H](O)[C@H]2O)[C@H](O)[C@@H](O)[C@@H]1O: inactive
3) C1CCC(SSC2CCCCC2)CC1: inactive
4) O=c1[nH]c(=O)n([C@H]2C[C@H](O)[C@@H](CO)O2)cc1F: active
5) CC(C(=O)O)c1ccc2c(c1)[nH]c1ccc(Cl)cc12 (stereo not given): inactive
6) Cc1cccc(C(=O)O)c1O: inactive

Can you look up the reported call for `COc1cc(/C=C/c2ccccc2)oc(=O)c1` for me?
inactive

Per the assay record, what outcome was assigned to `CCCCCCCC` ?
inactive

What did this assay record as the result for `Cc1ccc(N/N=c2\c(=O)cc/c(=N\Nc3ccc(S(=O)(=O)O)cc3)c2=O)c(C)c1` ?
inactive

Record lookup: outcome of this test for `Cc1cc(C)c(/C=C2\C(=O)Nc3ccccc32)[nH]1` ?
inactive
